# measured_target: T1, Ala mutant of TA0096, SEQ ID NO: 35
# T1 peptide: EENMDDQWAQDEMEIGY
# assay_name: ELISA, coated peptide
quantity: OD 490/630 nm

H7 (antibody, V domains shown, Chicken variable regions in a mouse chimeric antibody (IgG1); also called anti-PAD4 antibody H7) VH: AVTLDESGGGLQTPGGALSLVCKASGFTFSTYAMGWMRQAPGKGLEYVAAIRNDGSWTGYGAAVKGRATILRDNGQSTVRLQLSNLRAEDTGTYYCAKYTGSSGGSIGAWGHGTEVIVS VL: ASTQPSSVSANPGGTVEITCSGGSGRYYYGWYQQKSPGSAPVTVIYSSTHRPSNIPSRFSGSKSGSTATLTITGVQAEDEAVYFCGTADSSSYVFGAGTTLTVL : 0.065
G8 (antibody, V domains shown, Chicken variable regions in a mouse chimeric antibody (IgG1); also called anti-PAD4 antibody G8) VH: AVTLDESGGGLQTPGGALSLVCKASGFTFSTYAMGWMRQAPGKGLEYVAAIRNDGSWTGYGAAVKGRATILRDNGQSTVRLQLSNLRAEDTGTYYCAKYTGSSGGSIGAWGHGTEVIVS VL: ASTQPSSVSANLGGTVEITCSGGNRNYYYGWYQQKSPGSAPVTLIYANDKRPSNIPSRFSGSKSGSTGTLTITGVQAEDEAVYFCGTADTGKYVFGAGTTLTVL : 0.233
G6 (antibody, V domains shown, Chicken variable regions in a mouse chimeric antibody (IgG1); also called anti-PAD4 antibody G6) VH: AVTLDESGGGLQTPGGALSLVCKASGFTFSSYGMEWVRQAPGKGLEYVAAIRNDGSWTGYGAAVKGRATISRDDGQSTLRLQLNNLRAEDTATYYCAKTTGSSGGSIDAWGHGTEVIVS VL: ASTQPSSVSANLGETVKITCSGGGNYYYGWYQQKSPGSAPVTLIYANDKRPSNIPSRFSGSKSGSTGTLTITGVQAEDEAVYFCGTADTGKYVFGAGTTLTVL : 0.015

# credit: patent US20180044434A1
